Can you tell me pEC50 for the items I'm about to list?
target or test system: JAK3 (Homo sapiens)
Construct: All four purified enzymes contain only the catalytic domain; His (N)
Sequence (P52333 822-1111 limits assumed): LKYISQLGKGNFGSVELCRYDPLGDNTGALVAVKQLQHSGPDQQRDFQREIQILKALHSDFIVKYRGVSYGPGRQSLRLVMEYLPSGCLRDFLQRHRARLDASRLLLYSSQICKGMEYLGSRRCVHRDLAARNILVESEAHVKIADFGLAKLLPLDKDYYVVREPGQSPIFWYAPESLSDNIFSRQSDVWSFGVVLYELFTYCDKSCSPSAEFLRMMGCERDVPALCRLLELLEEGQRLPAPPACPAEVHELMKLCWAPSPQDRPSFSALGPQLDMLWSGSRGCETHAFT
assay procedure: JAK3 kinase assay (HTRF, inhibition of phosphorylation of a synthetic peptide)
experimental parameters: catalytic domain, His-tag; 2 μM ATP (Km); read-out: JAK3 kinase inhibitory activity (EC50)
pEC50: −log10 of the molar value.

Enquiry: What reported pEC50 corresponds to O=C(c1ccc[nH]1)N1CCCN(c2ncnc3[nH]ccc23)CC12CC2 on JAK3 (Homo sapiens)?
Return: 6.00 to 7.00

Enquiry: What measured pEC50 is associated with N#Cc1c[nH]c(C(=O)N2CCN(c3ncnc4[nH]ccc34)CC3(CC3)C2)c1 on JAK3 (Homo sapiens)?
Return: 6.00 to 7.00

Enquiry: Reported pEC50 for JAK3 (Homo sapiens), given CCCc1csc(C(=O)N2CCN(c3ncnc4[nH]ccc34)CC3(CC3)C2)c1 ?
Return: 6.00 to 7.00

Enquiry: Query for JAK3 (Homo sapiens): what pEC50 does the record show for O=C(c1cccnc1)N1CCCN(c2ncnc3[nH]ccc23)CC12CC2 ?
Return: < 6.00
